# Experimental Target: T1, RAGE-Fc (human, UniProt Q15109 23-344, limits assumed)
# T1 construct: also called hRAGE; not shown: Fc part, detected with anti-hIgG Fc-specific conjugate
# T1 sequence (Q15109 23-344 limits assumed): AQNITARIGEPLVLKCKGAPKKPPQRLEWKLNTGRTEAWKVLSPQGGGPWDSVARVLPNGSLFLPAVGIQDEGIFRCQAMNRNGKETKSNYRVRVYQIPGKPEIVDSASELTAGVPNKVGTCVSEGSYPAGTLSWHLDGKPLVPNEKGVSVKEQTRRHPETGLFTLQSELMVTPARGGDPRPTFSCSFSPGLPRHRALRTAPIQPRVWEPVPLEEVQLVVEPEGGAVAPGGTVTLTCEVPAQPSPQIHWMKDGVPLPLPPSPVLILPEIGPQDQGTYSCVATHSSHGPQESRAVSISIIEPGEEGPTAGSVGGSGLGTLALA
# Assay Protocol: competition ELISA, RAGE-S100A6 interaction
Parameter Measured: IC50 (nM)
# unit: nM | format: bare number

Worked set:
Binder	IC50, nM
Control XT-M4 (antibody, V domains shown) VH: EVQLVESGGGLVQPGRSLKLSCVVSGFTFNNYWMTWIRQTPGKGLEWVASINNSGDNTYYPDSVKDRFTISRDNAKSTLYLQMNSLRSEDTATYYCTRGGDITTGFDYWGQGVMVTVSS VL: DIQMTQSPSSMSVSLGDTITITCRASQDVGIYVNWFQQKPGKSPRRMIYRATNLADGVPSRFSGSRSGSIYSLTISSLESEDVADYHCLEFDEHPLTFGSGTKVEIK	34.6
240 RAGE-1 (antibody, V domains shown, Anti-RAGE monoclonal antibody from a hybridoma, captured by anti-mouse Fc; also called LP08108) VH: QIQLVQSGPELKKPGETVKISCKASGYTFTDYSMHWVKQAPGKGLKWMGWINTETGEPTYADDFKGRFAFSLETSASTAYLQINNLKNEDTATYFCARDYLYYYAMDYWGQGTSVTVSS VL: DVVLTQTPLSLPVSIGDQASISCKSTKSLLNSDGFTYLDWYLQKPGQSPQLLIYLVSNRFSGVPDSFSGSGSGTDFTLKISRVEAEDLGVYYCFQSNYFPLTFGGGTTLEIK	44.4

Looking up 158 RAGE-1 (antibody, V domains shown, Anti-RAGE monoclonal antibody from a hybridoma, captured by anti-mouse Fc; also called LP08105) VH: QIQLVQSGPELKKPGETVKISCKASGYTFTDYSMHWVKQAPGKGLKWMGWINTETGEPTYADDFKGRFAFSLETSASTAYLLINNLKTEDTATYFCARDYLYYYAMDYWGQGTSVTVSS VL: DVVLTQTPLSLPVNIGDQASISCKSTKSLLNSDGFTYLDWYLQKPGQSPQLLIYLVSNRFSGVPDRFSGSGSGTDFTLKISRVEAEDLGVYYCFQSNYLPLTFGGGTKVEIK , I see its IC50 listed as 45.3

Looking up 166 RAGE-1 (antibody, V domains shown, Anti-RAGE monoclonal antibody from a hybridoma, captured by anti-mouse Fc; also called LP08122; LP08122D) VH: QVQLQQSGPELVKPGTSVRISCKASGYTFTSYYIHWVKQRPGQGLEWIGWIYPGNVITNYHEKFKGKASLTADKSSSTAYMQLSSLTSEDSAVYFCAREDPFAYWGQGTLVTVSA VL: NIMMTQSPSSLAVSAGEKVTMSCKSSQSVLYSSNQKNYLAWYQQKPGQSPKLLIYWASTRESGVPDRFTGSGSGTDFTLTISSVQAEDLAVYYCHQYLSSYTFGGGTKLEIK , I see its IC50 listed as 55.5

Looking up 56 RAGE-1 (antibody, V domains shown, Anti-RAGE monoclonal antibody from a hybridoma, captured by anti-mouse Fc; also called LP08103; Protein 56 RAGE-1) VH: QVQLQQSGPELVKPGASVRISCKASGYTFTSYFIHWVKQRPGQGLEWIGWIYPGNVNTKYNEKFKDKATLTADKSSSTAYMQLSNLTSEDSAVYFCVRGQLGDYWGQGITLTVSS VL: DIVMTQSQKFMSTSVGDRVSVTCKASQNVGINVAWYQQKPGQSPKALIYSASYRYSGVPDRFTGSGSGTDFTLIISNVQSEDLAEYFCQQYNNYPRTFGGGTKLEIK , I see its IC50 listed as 7.7
